Every entry's value here was drawn from patent US10100010B1.

# test_target: UniProtKB P08172
# Sequence (P08172 1-466): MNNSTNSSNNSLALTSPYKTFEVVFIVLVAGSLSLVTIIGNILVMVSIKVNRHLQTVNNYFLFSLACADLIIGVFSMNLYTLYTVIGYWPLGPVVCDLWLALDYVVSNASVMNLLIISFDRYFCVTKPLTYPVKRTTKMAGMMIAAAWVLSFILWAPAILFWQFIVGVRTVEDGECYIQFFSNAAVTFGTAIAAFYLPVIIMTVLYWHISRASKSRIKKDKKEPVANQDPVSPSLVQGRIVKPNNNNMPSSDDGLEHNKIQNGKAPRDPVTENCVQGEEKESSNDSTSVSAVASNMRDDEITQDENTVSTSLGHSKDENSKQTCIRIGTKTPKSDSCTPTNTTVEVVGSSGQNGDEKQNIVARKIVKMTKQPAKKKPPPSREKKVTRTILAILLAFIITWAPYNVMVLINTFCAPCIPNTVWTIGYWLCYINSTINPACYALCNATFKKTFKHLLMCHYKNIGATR
# protocol_text: GPCR Calcium Flux assay (FLIPR tetra, Eurofins), M2
# Format: cell-based
# setup_conditions: single concentration of 10 uM; read-out: inhibition rate (%) M2
Where a name gives a salt, the structure may show the parent alone.
endpoint_label: inhibition at 10 µM (%)
Your answer is read as %, so omit the unit and give the number.

CNCc1cn(S(=O)(=O)c2cccc(Cl)c2)c(-c2c(F)cccc2F)c1OC [Example 14, hydrochloride]    48.1

Bench note: what inhibition at 10 µM did CNCc1cn(S(=O)(=O)c2cccc(F)c2)c(-c2cc(F)ccc2F)c1OC [Example 31, hydrochloride] show? 98.6

Bench note: what inhibition at 10 µM did CNCc1cn(S(=O)(=O)c2ccc(F)c(F)c2)c(-c2c(F)cc(F)cc2F)c1OC [Example 26, hydrochloride] show? 89.2

Bench note: what inhibition at 10 µM did CNCc1cn(S(=O)(=O)c2cccc(OC)c2)c(-c2c(F)ccc(F)c2F)c1OC [Example 30, hydrochloride] show? 43

Bench note: what inhibition at 10 µM did CNCc1cn(S(=O)(=O)c2cccc(F)c2)c(-c2ccc(F)cc2F)c1OC.Cl [Example 8, hydrochloride] show? 101

Bench note: what inhibition at 10 µM did CNCc1cn(S(=O)(=O)c2cccc(OC)c2)c(-c2cc(F)ccc2F)c1OC [Example 33, hydrochloride] show? 29

Bench note: what inhibition at 10 µM did CNCc1cn(S(=O)(=O)c2cccc(F)c2)c(-c2c(F)cc(F)cc2F)c1OC.Cl [Example 22, hydrochloride] show? 100

Bench note: what inhibition at 10 µM did CNCc1cn(S(=O)(=O)c2cccc(C(F)(F)F)c2)c(-c2c(F)cccc2F)c1OC [Example 15, hydrochloride] show? 62.1
